- System: PC-12
- assay-name: Neuroprotective activity against rat PC12 cells assessed as reduction in amyloid beta (25 to 35)-induced cytotoxicity at 15 uM incubated for 4 hrs followed by amyloid beta (25 to 35) treatment for 24 hrs by MTT assay relative to control
- Assay type: functional
- Set-up: scale not given: the % may be the effect or the level left
- test-conditions: time 28 hrs
The reader will find reported Activity values listed item by item below.
Provide only the numeric value, understood in %.

Recorded Activity, per entry:
smiles-repr	measured-metric	number
CC1(C)CCC[C@](C)([C@H]2CC[C@]3(C)[C@@H]2[C@H](O)C[C@@H]2[C@@]4(C)CC[C@H](OC(=O)CN5CCOCC5)C(C)(C)[C@@H]4CC[C@]23C)O1.Cl	Activity	23.96
CCCNC(=O)O[C@H]1CC[C@]2(C)[C@H]3C[C@@H](O)[C@@H]4[C@@H]([C@@]5(C)CCCC(C)(C)O5)CC[C@@]4(C)[C@]3(C)CC[C@H]2C1(C)C	Activity	65.9
CC1(C)CCC[C@](C)([C@H]2CC[C@]3(C)[C@@H]2[C@H](O)C[C@@H]2[C@@]4(C)CC[C@H](OP(=O)(Oc5ccc(F)cc5)Oc5ccc(F)cc5)C(C)(C)[C@@H]4CC[C@]23C)O1	Activity	48.68
CC1(C)CCC[C@](C)([C@H]2CC[C@]3(C)[C@@H]2[C@H](O)C[C@@H]2[C@@]4(C)CC[C@H](OC(=O)/C=C/c5ccco5)C(C)(C)[C@@H]4CC[C@]23C)O1	Activity	40.56

Task: State the recorded Activity for this entry: "COC(=O)[C@H](NC(=O)CCC(=O)O[C@H]1CC[C@]2(C)[C@H]3C[C@@H](O)[C@@H]4[C@@H]([C@@]5(C)CCCC(C)(C)O5)CC[C@@]4(C)[C@]3(C)CC[C@H]2C1(C)C)C(C)C"
Result: 25.34

Task: Input "CC1(C)CCC[C@](C)([C@H]2CC[C@]3(C)[C@@H]2[C@H](O)C[C@@H]2[C@@]4(C)CC[C@H](OC(=O)Nc5cccc(F)c5)C(C)(C)[C@@H]4CC[C@]23C)O1"
Result: 65.25

* * *

- assay-name: AUC (0-infinity) in Sprague-Dawley rat at 10 mg/kg,iv measured at 0.083 to 24 hrs post administration by LC-MS/MS analysis
- Format: ADME, organism-based
- Set-up: dose 10 mg/kg, time 0.083-24 hrs, route iv
- test-conditions: in vivo
measured-metric: AUC(0-inf) (ng·h/mL)
Provide only the numeric value, understood in ng·h/mL.

Task: State the recorded AUC(0-inf) for this entry: "CC1(C)CCC[C@](C)([C@H]2CC[C@]3(C)[C@@H]2[C@H](O)C[C@@H]2[C@@]4(C)CC[C@H](OC(=O)NCc5ccccc5)C(C)(C)[C@@H]4CC[C@]23C)O1"
Result: 40700

* * *

- assay-name: MRT (0 to t) in Sprague-Dawley rat at 60 mg/kg,po measured at 0.25 to 24 hrs post administration by LC-MS/MS analysis
- Type: ADME, organism-based
- test-conditions: in vivo, time 0.25-24 hrs
measured-metric: MRT last (h)
Provide only the numeric value, understood in h.

Task: State the recorded MRT last for this entry: "CC1(C)CCC[C@](C)([C@H]2CC[C@]3(C)[C@@H]2[C@H](O)C[C@@H]2[C@@]4(C)CC[C@H](OC(=O)NCc5ccccc5)C(C)(C)[C@@H]4CC[C@]23C)O1"
Result: 2.24

* * *

- assay-name: Half life in Sprague-Dawley rat at 10 mg/kg,iv measured at 0.083 to 24 hrs post administration by LC-MS/MS analysis
- Format: ADME, organism-based
- test-conditions: in vivo, time 0.083-24 hrs
measured-metric: half-life (h)
Provide only the numeric value, understood in h.

Task: State the recorded half-life for this entry: "CC1(C)CCC[C@](C)([C@H]2CC[C@]3(C)[C@@H]2[C@H](O)C[C@@H]2[C@@]4(C)CC[C@H](OC(=O)NCc5ccccc5)C(C)(C)[C@@H]4CC[C@]23C)O1"
Result: 2.6

* * *

- assay-name: MRT (0 to t) in Sprague-Dawley rat at 10 mg/kg,iv measured at 0.083 to 24 hrs post administration by LC-MS/MS analysis
- Type: ADME, organism-based
- test-conditions: in vivo, time 0.083-24 hrs
measured-metric: MRT last (min)
Provide only the numeric value, understood in min.

Task: State the recorded MRT last for this entry: "CC1(C)CCC[C@](C)([C@H]2CC[C@]3(C)[C@@H]2[C@H](O)C[C@@H]2[C@@]4(C)CC[C@H](OC(=O)NCc5ccccc5)C(C)(C)[C@@H]4CC[C@]23C)O1"
Result: 25.6

* * *

- assay-name: Half life in Sprague-Dawley rat at 60 mg/kg,po measured at 0.25 to 24 hrs post administration by LC-MS/MS analysis
- Assay type: ADME, organism-based
- test-conditions: in vivo, time 0.25-24 hrs
measured-metric: half-life (min)
Provide only the numeric value, understood in min.

Task: State the recorded half-life for this entry: "CC1(C)CCC[C@](C)([C@H]2CC[C@]3(C)[C@@H]2[C@H](O)C[C@@H]2[C@@]4(C)CC[C@H](OC(=O)NCc5ccccc5)C(C)(C)[C@@H]4CC[C@]23C)O1"
Result: 49

* * *

- assay-name: AUC (0-infinity) in Sprague-Dawley rat at 60 mg/kg,po measured at 0.25 to 24 hrs post administration by LC-MS/MS analysis
- Type: ADME, organism-based
- Set-up: dose 60 mg/kg, time 0.25-24 hrs, route po
- test-conditions: in vivo
measured-metric: AUC(0-inf) (ng·h/mL)
Provide only the numeric value, understood in ng·h/mL.

Task: State the recorded AUC(0-inf) for this entry: "CC1(C)CCC[C@](C)([C@H]2CC[C@]3(C)[C@@H]2[C@H](O)C[C@@H]2[C@@]4(C)CC[C@H](OC(=O)NCc5ccccc5)C(C)(C)[C@@H]4CC[C@]23C)O1"
Result: 326

* * *

- assay-name: Cytotoxicity against mouse Neuro2a cells assessed as cell viability at 120 uM incubated for 24 hrs by MTT assay
- Format: toxicity, cell-based
- test-conditions: Neuro2a (N2a) cells, read-out: Activity
measured-metric: viability at 24 h, 120 µM

Task: State the recorded viability at 24 h, 120 µM for this entry: "CC1(C)CCC[C@](C)([C@H]2CC[C@]3(C)[C@@H]2[C@H](O)C[C@@H]2[C@@]4(C)CC[C@H](OC(=O)NCc5ccccc5)C(C)(C)[C@@H]4CC[C@]23C)O1"
Result: > 50%

* * *

- assay-name: C0 in Sprague-Dawley rat at 10 mg/kg,iv measured at 0.083 to 24 hrs post administration by LC-MS/MS analysis
- Format: ADME, organism-based
- test-conditions: in vivo, time 0.083-24 hrs
measured-metric: C0 (µg/mL)
Provide only the numeric value, understood in µg/mL.

Task: State the recorded C0 for this entry: "CC1(C)CCC[C@](C)([C@H]2CC[C@]3(C)[C@@H]2[C@H](O)C[C@@H]2[C@@]4(C)CC[C@H](OC(=O)NCc5ccccc5)C(C)(C)[C@@H]4CC[C@]23C)O1"
Result: 237

* * *

- assay-name: Volume of distribution of steady state in Sprague-Dawley rat at 10 mg/kg,iv measured at 0.083 to 24 hrs post administration by LC-MS/MS analysis
- Format: ADME, organism-based
- test-conditions: in vivo, time 0.083-24 hrs, read-out: Vdss
measured-metric: Vd (L/kg)
Provide only the numeric value, understood in L/kg.

Task: State the recorded Vd for this entry: "CC1(C)CCC[C@](C)([C@H]2CC[C@]3(C)[C@@H]2[C@H](O)C[C@@H]2[C@@]4(C)CC[C@H](OC(=O)NCc5ccccc5)C(C)(C)[C@@H]4CC[C@]23C)O1"
Result: 0.133

* * *

- assay-name: Cytotoxicity against human HUVEC cells assessed as cell viability at 120 uM incubated for 24 hrs by MTT assay
- Format: toxicity, cell-based
- test-conditions: read-out: Activity
measured-metric: viability at 24 h, 120 µM

Task: State the recorded viability at 24 h, 120 µM for this entry: "CC1(C)CCC[C@](C)([C@H]2CC[C@]3(C)[C@@H]2[C@H](O)C[C@@H]2[C@@]4(C)CC[C@H](OC(=O)NCc5ccccc5)C(C)(C)[C@@H]4CC[C@]23C)O1"
Result: > 50%

* * *

- System: PC-12
- assay-name: Neuroprotective activity against rat PC12 cells assessed as reduction in amyloid beta (25 to 35)-induced cytotoxicity at 15 uM incubated for 4 hrs followed by amyloid beta (25 to 35) treatment for 24 hrs by MTT assay relative to control
- Type: functional
- Set-up: scale not given: the % may be the effect or the level left
- test-conditions: time 28 hrs
Is Activity at least 60%? Then met. If not, not met.

smiles-repr	cat
CCNC(=O)O[C@H]1CC[C@]2(C)[C@H]3C[C@@H](O)[C@@H]4[C@@H]([C@@]5(C)CCCC(C)(C)O5)CC[C@@]4(C)[C@]3(C)CC[C@H]2C1(C)C	met

Task: // inclusive: Activity at least 60%? input: "CC1(C)CCC[C@](C)([C@H]2CC[C@]3(C)[C@@H]2[C@H](O)C[C@@H]2[C@@]4(C)CC[C@H](OC(=O)/C=C/c5ccc(N6CCOCC6)cc5)C(C)(C)[C@@H]4CC[C@]23C)O1"
Result: not met

Task: Input "CC1(C)CCC[C@](C)([C@H]2CC[C@]3(C)[C@@H]2[C@H](O)C[C@@H]2[C@@]4(C)CC[C@H](OC(=O)NC5CCCCC5)C(C)(C)[C@@H]4CC[C@]23C)O1"
Result: met

Task: Input "COc1ccc(-n2cc(C(=O)O[C@H]3CC[C@]4(C)[C@H]5C[C@@H](O)[C@@H]6[C@@H]([C@@]7(C)CCCC(C)(C)O7)CC[C@@]6(C)[C@]5(C)CC[C@H]4C3(C)C)nn2)cc1"
Result: not met
